All figures here come from PubChem BioAssay (NCATS).

- testTarget: DNA repair nuclease/redox regulator APEX1 (Homo sapiens) (UniProt P27695)
- Sequence (P27695 whole entry, looked up): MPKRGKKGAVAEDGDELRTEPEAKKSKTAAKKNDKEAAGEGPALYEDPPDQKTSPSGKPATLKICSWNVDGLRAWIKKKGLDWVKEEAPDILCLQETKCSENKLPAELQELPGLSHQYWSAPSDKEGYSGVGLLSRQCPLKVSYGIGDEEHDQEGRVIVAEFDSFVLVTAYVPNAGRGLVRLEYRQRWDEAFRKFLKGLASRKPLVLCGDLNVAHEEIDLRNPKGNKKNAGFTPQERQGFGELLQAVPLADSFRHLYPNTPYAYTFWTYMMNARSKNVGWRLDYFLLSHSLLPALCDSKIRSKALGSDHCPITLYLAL
- experimentDescription: qHTS Validation Assay for Inhibitors of the Human Apurinic/apyrimidinic Endonuclease 1 (APE1) (AID 1705)
- recordedConditions: purified APE1 endonuclease activity, fluorescence, titration; series mostly up to 57.1 µM
Inconclusive results are not listed. Active and inactive are the calls of the source. Calls follow the shape of the dose curve; as a rule, active = well fitted inhibition curve with a large enough effect; inconclusive = small, poorly fitted or top-dose-only effect; inactive = flat fitted curve, though single readings scatter.
Would you mind answering with one of these outcomes? 1.0 (active), 0.0 (inactive)

Consider the following illustrative entries.
CC(O)C(C)OC(=O)[C@@H]1C[C@@H]2c3cccc4c3c(cn4C(C)C)C[C@H]2N(C)C1 (stereo not given in full)    0.0
C[N+]1(C)CCc2cc3c(cc2C1C1OC(=O)c2c1ccc1c2OCO1)OCO3 (stereo not given)    0.0
N#CC(C#N)=Cc1ccc([N+](=O)[O-])c(O)c1    0.0
CN1CCN(c2ccc3ccccc3n2)CC1    0.0

**Query** Identify the outcome logged in this assay for the compound shown: N[C@@H](Cn1cc(I)c(=O)[nH]c1=O)C(=O)O
**Result** 0.0

**Query** Identify the outcome logged in this assay for the compound shown: COC(=O)c1cc2c(cn1)[nH]c1ccccc12
**Result** 0.0

**Query** Identify the outcome logged in this assay for the compound shown: CN1CCc2cc(O)cc3c2C1Cc1ccc(O)c(O)c1-3 (stereo not given)
**Result** 0.0

**Query** Identify the outcome logged in this assay for the compound shown: COc1cc(CCN)ccc1O
**Result** 0.0

**Query** Identify the outcome logged in this assay for the compound shown: NO
**Result** 0.0

**Query** Identify the outcome logged in this assay for the compound shown: Oc1ccccc1O
**Result** 1.0

====

- Tested on: HaCat
- experimentDescription: Cytotoxic Profiling of Annotated Libraries Using Quantitative High-Throughput Screening (AID 1296008); also: % is scaled to controls: 0 for no effect and ±100 for the full control effect; nearly all actives have a fitted effect of over 60% in size
- recordedConditions: Five cell lines viability, CellTiter-Glo ATP luminescence, 48-72 h; stronger effect = lower value
Inconclusive results are not listed.
Readings of max response for the listed compounds
Your answer should be a plain number; it is taken to be in %.

Example compounds with recorded max response:
CC(=O)O[C@@H]1[C@H]2CC[C@H]3[C@@](C)(O)[C@@H]4C[C@H](O)C(C)(C)[C@@]4(O)[C@H](O)C[C@@]13C[C@@]2(C)O    -9.56
Cc1c(Cl)c(OCC(=O)N2CCN(C)CC2)nc2sc(C(=O)NC3CC3)c(N)c12    -0.624
CC1CCCC(=O)CCC/C=C/c2cc(O)cc(O)c2C(=O)O1 (centres undefined)    2.86
CC(=O)O[C@H]1CN2CCC1CC2    1.98
C[C@@H]1CCC2[C@@H](C)C(=O)OC3O[C@@]4(C)CCC1[C@]32OO4 (some centres undefined)    -1.21
Cc1ccccc1CN1CCC(N2CCC(n3c(=O)[nH]c4ccccc43)CC2)CC1    0.939
CNC(=O)c1cc(C#N)cc(C)c1NC(=O)c1cc(Br)nn1-c1ncccc1Cl    -17.6
CCCCCn1cc(C(=O)Cc2ccccc2OC)c2ccccc21    -10.3

Moving on to the next compound.
**Query** Which max response is listed for COc1ccc(CN(C(=O)[C@@H](N)Cc2c(C)cc(C(N)=O)cc2C)[C@@H](C)c2ncc(-c3ccccc3)[nH]2)cc1C(=O)O ?
**Result** 1.02

====

- experimentDescription: qHTS for Antimalaria activity screened against the NCATS CANVASS Library (AID 1347380); also: nearly all actives have a fitted effect of over 40% in size
- recordedConditions: P. falciparum Dd2 growth, SYBR Green fluorescence, 72 h; series mostly up to 28.7 µM
Inconclusive results are not listed. The source made the active and inactive calls. Calls come from the whole dose curve; as a rule, active = well fitted cell-killing curve with a large enough effect; inconclusive = small, poorly fitted or top-dose-only effect, or effect the other way; inactive = no such curve, though single readings can be large or run the other way.
Would you mind answering with one of these outcomes? active, inactive

Consider the following illustrative entries.
C=C1[C@@H](C)[C@H]2[C@H](Cc3ccccc3)NC(=O)[C@]23OC(=O)/C=C/[C@H](O)CCC[C@@H](C)C/C=C/[C@H]3[C@@H]1O    active
O=C(c1ccccc1O)c1[nH]c(Cl)c(Cl)c1-n1c(C(=O)c2ccccc2O)cc(Cl)c1Cl    active
CO[C@H](c1ccccc1)[C@H]1NC(=O)C(C)NC(=O)C(C[C@@H](C)CO)N(C)C(=O)[C@@H](C(O)c2cn(C(C)(C)C3CO3)c3ccccc23)NC(=O)C(C(C)C=C(C)C)NC(=O)C(CC(C)C)N(C)C(=O)C(C(C)C)NC1=O (stereo not given in full)    active

**Query** Identify the outcome logged in this assay for the molecule shown: NCCc1ccccc1
**Result** inactive

**Query** Identify the outcome logged in this assay for the molecule shown: CCN1C[C@]2(C)CC[C@H](O)[C@]34C1C(C[C@H]23)[C@@]12CC[C@H](CC14)[C@](O)(COC(=O)c1ccc(OC)c(OC)c1)[C@H]2O (stereo not given in full)
**Result** inactive

====

- testTarget: Flap endonuclease 1 (Homo sapiens) (UniProt P39748)
- Sequence (P39748 whole entry, looked up): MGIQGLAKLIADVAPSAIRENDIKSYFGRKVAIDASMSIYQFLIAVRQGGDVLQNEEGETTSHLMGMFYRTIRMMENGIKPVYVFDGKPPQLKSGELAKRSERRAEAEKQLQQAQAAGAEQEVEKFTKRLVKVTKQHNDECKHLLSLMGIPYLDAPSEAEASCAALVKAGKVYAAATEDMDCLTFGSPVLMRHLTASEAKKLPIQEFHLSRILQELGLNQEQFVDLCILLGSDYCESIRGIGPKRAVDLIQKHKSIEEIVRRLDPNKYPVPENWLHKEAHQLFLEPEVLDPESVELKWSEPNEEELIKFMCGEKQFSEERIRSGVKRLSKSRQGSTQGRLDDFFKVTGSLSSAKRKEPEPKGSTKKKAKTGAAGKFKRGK
- experimentDescription: qHTS Validation Assay for the Inhibitors of Human Flap endonuclease 1 (FEN1) (AID 488816)
- recordedConditions: FEN1 nuclease activity, fluorogenic DNA substrate; series mostly up to 57.1 µM
- Method: The major human flap endonuclease FEN1 is an efficient structure-specific enzyme that recognizes and cleaves a 5'-unannealed DNA flap. […] Three uL of reagents (buffer in column 3 and 4 as negative control and 10 nM FEN1 in columns 1, 2, and 5-48) were dispensed into 1,536-well black solid-bottomed plate. […] The plates were then incubated for 15 min at room temperature, and 1 uL substrate (50 nM final concentration) were added to start the reaction read twice at 0 min read and 15 min on ViewLux reader. […]
Active and inactive are the calls of the source. Calls follow the shape of the dose curve; as a rule, active = well fitted inhibition curve with a large enough effect; inconclusive = small, poorly fitted or top-dose-only effect; inactive = flat fitted curve, though single readings scatter.
Would you mind answering with one of these outcomes? y (active), n (inactive)

Consider the following illustrative entries.
O=[N+]([O-])c1ccc(O[C@@H]2O[C@H](CO)[C@@H](O)[C@H](O)[C@H]2F)c([N+](=O)[O-])c1    n
Brc1c(Br)c(Br)c2n[nH]nc2c1Br    n
CN1[C@@H](CC(=O)c2ccccc2)CCC[C@H]1C[C@H](O)c1ccccc1    n
N#C/C(=C\c1ccc(O)c(O)c1)C(=O)NCCCNC(=O)/C(C#N)=C/c1ccc(O)c(O)c1    y

Then this molecule:
**Query** Identify the outcome logged in this assay for the molecule shown: Cn1ccnc1
**Result** n

====

- Test system: CP260
- experimentDescription: qHTS profiling for inhibitors of Plasmodium falciparum proliferation (AID 504749); also: nearly all actives have a fitted effect of over 60% in size
- recordedConditions: P. falciparum in erythrocytes, SYBR Green DNA, 72 h; series mostly up to 28.7 µM
Records with an inconclusive call do not appear. Active and inactive are the calls of the source. The call rests on the fitted dose curve; in most records, active means well fitted inhibition curve with a large enough effect; inconclusive means small, poorly fitted or top-dose-only effect; inactive means flat fitted curve, though single readings scatter.
Would you mind answering with one of these outcomes? yes (1) (active), no (0) (inactive)

Consider the following illustrative entries.
CC(C)[C@@]1(NC(=O)[C@H]2CC3c4cccc5[nH]cc(c45)C[C@H]3N(C)C2)O[C@@]2(O)C3CCCN3C(=O)[C@@H](Cc3ccccc3)N2C1=O (some centres undefined)    yes (1)
O=C(O)c1ccccc1-c1c2cc(Br)c(=O)cc-2oc2[c]([Hg])c(O)c(Br)cc12    no (0)
CCN(CC)CCO[C@H]1CC[C@@]2(C)C(=CC[C@@H]3[C@H]2CC[C@]2(C)C(=O)CC[C@H]32)C1    no (0)

**Query** Identify the outcome logged in this assay for the compound shown: CCN1C[C@]2(COC)[C@H](O)C[C@H](OC)[C@]34C1C([C@H](OC)[C@H]23)[C@]1(OC(C)=O)C2[C@@H](OC(=O)c3ccccc3)C(O)(C[C@H]24)[C@@H](OC)[C@@H]1O
**Result** no (0)

====

- System: Zika virus NS2B-NS3 protease (linked construct)
- experimentDescription: Primary screen NINDS Rhodamine qHTS for Zika virus inhibitors (AID 1347160); also: % is scaled to controls: 0 for no effect and ±100 for the full control effect; nearly all actives have a fitted effect of over 55% in size
- recordedConditions: purified NS2B-NS3 protease, Rhodamine110 substrate fluorescence; series mostly up to 57.1 µM
Results filed as inconclusive are left out. Active and inactive are the calls of the source. Calls follow the shape of the dose curve; as a rule, active = well fitted inhibition curve with a large enough effect; inconclusive = small, poorly fitted or top-dose-only effect; inactive = no such curve, though single readings can be large or run the other way.
measurementKind: outcome

Example molecules with recorded outcome:
C[C@@H]1Cc2c(Cl)cc(C(=O)N[C@@H](Cc3ccccc3)C(=O)O)c(O)c2C(=O)O1    inactive
CC1=CC2/C=C(\C)CCC(O)C(O)/C=C/C(=O)C23C(=O)NC(CC(C)C)C3C1C (configuration not stated)    inactive
N#Cc1ccccc1-c1cc(-c2ccccn2)cn(-c2ccccc2)c1=O    inactive
Cc1cccc(NC(=O)N[C@H]2CN(C)c3ccccc3C(c3ccccc3)=N2)c1    inactive
C=C1[C@@H](C)[C@H]2[C@H](Cc3ccccc3)NC(=O)[C@]23OC(=O)/C=C/C(=O)CCC[C@@H](C)C/C=C/[C@H]3[C@@H]1O    inactive

**Query** Lab note: need outcome for Oc1ccc2c3c1O[C@H]1c4[nH]c5c(N=C=S)cccc5c4C[C@@]4(O)[C@@H](C2)N(CC2CC2)CC[C@]314 on Zika virus NS2B-NS3 protease (linked construct), anyone have it?
**Result** inactive

**Query** Lab note: need outcome for C/C=C1/CN2CC[C@]34C(=Nc5ccc(OC)cc53)C2C[C@@H]1C4(CO)C(=O)OC (some centres not stated) on Zika virus NS2B-NS3 protease (linked construct), anyone have it?
**Result** inactive
